B1: CLCN6 (parent)
chain: MAGCRGSLCCCCRWCCCCGERETR

- Variants of: B1
- Experimental Details: protein stability index of a GFP-peptide fusion (GPS, HEK-293T) (PSI 1-6); higher = more stable;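 further: lentivirally expressed fusions sorted by FACS into six bins by GFP to DsRed ratio, PSI derived from sequencing read proportions per bin multiplied by bin number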
- Condition Label: c terminus: a fixed tail appended
Readout Type: protein stability index
Just the number.

Some solved cases for reference:
Mutant Id: C4F
Readout Type: protein stability index
Value: 2.4

Mutant Id: C16R
Readout Type: protein stability index
Value: 1.28

Mutant Id: G3E
Readout Type: protein stability index
Value: 2.09

Mutant Id: L8I
Readout Type: protein stability index
Value: 1.32

Mutant Id: G3M
Readout Type: protein stability index
Value: 1.99

protein stability index in this record for `R13H` : 2.06

protein stability index in this record for `C9D` : 1.18

protein stability index in this record for `R24Q` : 2.54

protein stability index in this record for `W14N` : 2.06

protein stability index in this record for `G19D` : 2.22

protein stability index in this record for `G19I` : 1.45

protein stability index in this record for `R13I` : 1.3

protein stability index in this record for `E20V` : 1.93

protein stability index in this record for `C11S` : 1.77

protein stability index in this record for `G6V` : 1.37

protein stability index in this record for `T23C` : 2.73

protein stability index in this record for `M1P` : 2.12

protein stability index in this record for `C18G` : 1.79

protein stability index in this record for `E20D` : 2.27

protein stability index in this record for `C15F` : 2.99

protein stability index in this record for `T23Y` : 1.79

protein stability index in this record for `C15D` : 1.71
